Molecular target: PDK1 (Homo sapiens, UniProt O15530)
Sequence (O15530 51-556 limits assumed): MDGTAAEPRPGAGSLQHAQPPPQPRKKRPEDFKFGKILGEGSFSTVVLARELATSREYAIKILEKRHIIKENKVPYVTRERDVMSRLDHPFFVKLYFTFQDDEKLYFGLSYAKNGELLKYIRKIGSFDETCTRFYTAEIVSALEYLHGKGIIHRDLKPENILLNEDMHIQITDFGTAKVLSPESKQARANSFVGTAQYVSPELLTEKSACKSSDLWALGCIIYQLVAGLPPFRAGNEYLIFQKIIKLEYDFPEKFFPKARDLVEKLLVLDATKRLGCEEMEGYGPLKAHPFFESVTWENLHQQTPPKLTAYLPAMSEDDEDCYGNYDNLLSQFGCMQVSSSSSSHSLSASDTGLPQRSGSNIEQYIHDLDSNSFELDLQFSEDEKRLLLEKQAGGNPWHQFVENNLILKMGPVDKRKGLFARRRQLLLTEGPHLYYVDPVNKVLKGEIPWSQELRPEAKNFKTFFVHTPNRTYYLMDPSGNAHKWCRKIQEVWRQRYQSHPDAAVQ
Property Label: pIC50
In plain terms, pIC50 is the concentration in mol/L turned into minus its base-10 logarithm.

Here is how some molecules turned out for pIC50.
>>> df
                                   molecule  data_value
0  CC(O)(c1ccccc1)c1cc(-c2c[nH]c3ncc(-c4cnn(CCC(=O)N5CCC(O)C5)c4)cc23)nc(N)n1 (stereo not drawn) [A65]        7.60
1  Cn1cc(-c2cnc3[nH]cc(-c4cc(C(O)(c5ccccc5)C5CCCC5)nc(N)n4)c3c2)cn1 (stereo not drawn) [A85]        7.28
2  Cn1cc(-c2cnc3[nH]cc(-c4cc(C(C)(O)c5ccc(=O)[nH]c5)nc(N)n4)c3c2)cn1 (stereo not drawn) [A111]        7.59
3  COCOC(C)(c1ccccc1)c1cc(-c2c[nH]c3ncc(-c4cnn(C)c4)cc23)nc(N)n1 (stereo not drawn) [A17]        7.24
4  COC(C)(c1ccccc1)c1cc(-c2c[nH]c3ncc(-c4cnn(CCO)c4)cc23)nc(N)n1 (stereo not drawn) [A27]        7.49

Task item: Give its pIC50 value. Item: CCC(OCOC)(c1cc(-c2c[nH]c3ncc(-c4cnn(C)c4)cc23)nc(N)n1)c1cccc(Cl)c1F (stereo not drawn) [A30]
Reply: 6.89

Task item: Also need CC[C@](O)(c1ccccc1)c1cc(-c2c[nH]c3ncc(-c4cnn(CC(=O)N5CCCCC5)c4)cc23)nc(N)n1 (single isomer, unassigned) [A135] , thanks.
Reply: 8.16

Task item: Also need Cn1cc(-c2cnc3[nH]cc(-c4cc(C(C)(O)c5ccc(CO)cc5)nc(N)n4)c3c2)cn1 (stereo not drawn) [A31] , thanks.
Reply: 7.36

Task item: Also need COCOC(C)(c1cc(-c2c[nH]c3ncc(-c4cnn(C)c4)cc23)nc(N)n1)c1ccccc1C (stereo not drawn) [A18] , thanks.
Reply: 7.49

Task item: Also need Cn1cc(-c2cnc3[nH]cc(-c4cc([C@@](C)(O)c5cccc(Cl)c5F)nc(N)n4)c3c2)cn1 (single isomer, unassigned) [A137] , thanks.
Reply: 7.55

Task item: Also need Cn1cc(-c2cnc3[nH]cc(-c4cc(C(C)(O)c5ccncc5)nc(N)n4)c3c2)cn1 (single isomer, unassigned) [A42] , thanks.
Reply: 8.49

Task item: Also need CC(O)(c1ccccc1)c1cc(-c2c[nH]c3ncc(-c4ccnnc4)cc23)nc(N)n1 (stereo not drawn) [A101] , thanks.
Reply: 6.13

Task item: Also need CC(O)(c1ccccc1)c1cc(-c2c[nH]c3ncc(Br)cc23)nc(N)n1 (stereo not drawn) [A86] , thanks.
Reply: 7.05

Task item: Also need CC(O)(c1ccccc1)c1cc(-c2c[nH]c3ncc(-c4cnn(CCC(N)=O)c4)cc23)nc(N)n1 (stereo not drawn) [A71] , thanks.
Reply: 7.82

Task item: Also need CNC(=O)CCn1cc(-c2cnc3[nH]cc(-c4cc(C(C)(OCOC)c5ccccc5)nc(N)n4)c3c2)cn1 (stereo not drawn) [A75] , thanks.
Reply: 7.10
